Collected kon values appear next to each entry.
biological target: T1, natural Fel d1 (Indoor Biotech, #NA-FD1-2) (cat, UniProt P30438 23-92; P30440 18-109); assay: SPR (Biacore), mAb captured, natural Fel d1 injected, 25 C;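 also: rate constants obtained by fitting association and dissociation phases to a one-to-one binding model, with Kd and half-life derived from those rate constants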
T1 construct: Bought natural heterodimeric glycoprotein, chains linked by disulfide bonds; also called nFel d1; nFel d 1
T1 sequence (P30438 other isoform, or with tags, fused parts or gaps, chain 1 of 2): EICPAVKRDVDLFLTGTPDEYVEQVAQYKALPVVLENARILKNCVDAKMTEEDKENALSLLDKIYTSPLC
T1 sequence (P30440 18-109, chain 2 of 2): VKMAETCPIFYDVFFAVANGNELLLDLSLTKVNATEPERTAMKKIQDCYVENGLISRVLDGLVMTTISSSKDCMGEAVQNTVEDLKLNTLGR
The answer is to be given in M⁻¹ s⁻¹; state only the numeric part.

For orientation, consider the following solved cases.
H4H2594S (antibody, human IgG4, V domains shown, human IgG4 Fc (H4H prefix)) VH: EVQLVESGGGLVKPGGSLRLSCAASGFTFSDYYMNWIRQAPGKGLEWVSYISSSGSSIYYADSVKGRFTISRDNAKNSLYLLMNSLRAEDTAVYYCARDGKYNSSPGDYWGQGTLVTVSS VL: DIQMTQSPSSLSASVGDRVTIACRASQGISNYLAWFQQKPGKAPKSLIYAASSLQSGVPSKFSGSGSGTDFTLTISSLQPEDFATYYCQQYNSYPLTFGGGTKVEIKR :: 1.1e+06
H2M1233N (antibody, mouse IgG2, V domains shown, chimeric: human variable domains, mouse IgG2 Fc (H2M prefix)) VH: QVVLVESGGGVVQPGRSLRLSCAASGFTFSSYGMHWVRQAPGKGLEWVAVIWYDGSNKYYVDSVKGRFTISRDNSNNTIYLQMNSLRAEDTAVYYCARSLIPVAGTDPIFGYWGQGTLVTVSS VL: DIQMTQSPSTLSASVGDRVTITCRASQSVSSWLAWYQQKPGKAPKLLIFKASGLESGVPFRFSGSGSGTEFTLTISSLQPDDFATYYCQQYNTYSPTFGQGTKVEIK :: 253000

// query Please give measured kon of the following entry: H2M1236N (antibody, mouse IgG2, V domains shown, chimeric: human variable domains, mouse IgG2 Fc (H2M prefix)) VH: QVQLQESGPGLVKPSETLSLTCTVSGGSISNYYWSWIRQPPGKGLEWIGYIYYSGRTNYNPSLKSRVTISVDTSKNQFSLKLRSVTAADTAVYYCARHRITRTADSFDYWGQGTLVTVSS VL: DIQMTQSPSSLSASVGDRVTITCQASQDITNYLNWYQQKPGKAPKLLIYDASNLETGVPSRFSGSGSGTDFTFTISSLQPEDVATFYCHQYGDLPYTFGQGTKLEIK
// result 312000
